Catalogue of IgG K' (column retention time ratio) readings, one per entry.
target: human serum polyclonal antibodies; experiment: cross-interaction chromatography (CIC), IgG column against blank column
Output spec: single numeric token, no unit.

For orientation, consider the following solved cases.
BINDER	READING
anti-human MCT1 antibody Ab10 (antibody, human IgG1, kappa, V domains shown) VH: QVQLVQSGAEVKKPGASVKVSCTVSGRSLTGYHLQWVRQAPGQGLEWMGFIRSSGNTEYNSEFKSRVTMTRDTSTSTVYMELSSLRSEDTAVYYCARNRWYHGTYYSPGYYVMDAWGQGTLVTVSS VL: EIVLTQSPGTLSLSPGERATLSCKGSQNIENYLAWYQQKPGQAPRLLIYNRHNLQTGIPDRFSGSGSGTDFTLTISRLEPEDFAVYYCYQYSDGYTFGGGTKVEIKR	0.06
anti-human MCT1 antibody Ab7 (antibody, human IgG1, kappa, V domains shown) VH: QVQLVQSGAEVKKPGASVKVSCTVSGRSRTNYHLQWVRQAPGQGLEWMGFIRSSGNTEYNSEFKSRVTMTRDTSTSTVYMELSSLRSEDTAVYYCARNRWYHGTYYSPGYYVMDAWGQGTLVTVSS VL: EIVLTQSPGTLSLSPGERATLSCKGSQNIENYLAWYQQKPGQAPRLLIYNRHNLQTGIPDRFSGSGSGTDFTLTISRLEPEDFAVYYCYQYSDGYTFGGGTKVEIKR	0.08
anti-human MCT1 antibody Ab16 (antibody, human IgG1, kappa, V domains shown) VH: QVQLVQSGAEVKKPGASVKVSCTRSGRSLTNYHLQWVRQAPGQGLEWMGFIRSSGNTEYNSEFKSRVTMTRDTSTSTVYMELSSLRSEDTAVYYCARNRWYHGTYYSPGYYVMDAWGQGTLVTVSS VL: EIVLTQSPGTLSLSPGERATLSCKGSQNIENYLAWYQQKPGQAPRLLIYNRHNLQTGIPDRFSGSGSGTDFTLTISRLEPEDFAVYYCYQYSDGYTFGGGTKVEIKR	0.08
anti-human MCT1 antibody Ab14 (antibody, human IgG1, kappa, V domains shown) VH: QVQLVQSGAEVKKPGASVKVSCTVSGRSLTNYHLQWVRQAPGQGLEWMGFIRSSGNTEYNSEFKSRVTMTRDTSTSTVYMELSSLRSEDTAVYYCARNRWYHGTYYSPGYYVMDPWGQGTLVTVSS VL: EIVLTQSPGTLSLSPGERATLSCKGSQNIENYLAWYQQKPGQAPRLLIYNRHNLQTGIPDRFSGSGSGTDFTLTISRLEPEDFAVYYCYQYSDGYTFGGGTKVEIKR	0.07

Turning now to a further record.
Looking up anti-human MCT1 antibody Ab13 (antibody, human IgG1, kappa, V domains shown) VH: QVQLVQSGAEVKKPGASVKVSCTVSGRSLTNYHLQWVRQAPGQGLEWMGFIRSSGNTEYNSEFKSRVTMTRDTSTSTVYMELSSLRSEDTAVYYCARNRWRHGTYYSPGYYVMDAWGQGTLVTVSS VL: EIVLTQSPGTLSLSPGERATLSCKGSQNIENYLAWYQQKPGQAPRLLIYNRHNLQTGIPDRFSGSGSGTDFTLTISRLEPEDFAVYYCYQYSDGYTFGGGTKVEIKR , I see its IgG K' (column retention time ratio) listed as 0.07
